- Target of assay: human metabotropic Glutamate 4 receptor (mGluR4) (Homo sapiens (Human))
- Run description: Assay A: in vitro testing of mGluR4 potency (glutamate-induced cAMP lowering, HTRF cAMP)
- Condition description: HEK293 cells overexpressing human mGluR4; 10 uM L-glutamic acid, 1 uM forskolin; compounds of the present invention
Parameter: IC50 (nM)

CCn1c([C@@H](NC(=O)c2cnc(C)cn2)C(C)(C)O)nc2cc(OC(F)(F)F)ccc21
10
Cc1cnc(C(=O)N[C@H](c2nc3cc(C(F)(F)F)ccc3n2C)[C@H]2CCCOC2)cn1
13

I: Cc1cnc(C(=O)N[C@H](c2nc3cc(F)c(Br)cc3n2C)C2CC2)cn1
II: CCn1c([C@@H](NC(=O)c2cnc(C)cn2)C(C)C)nc2cc(F)ccc21
Among I and II , whose measured IC50 is the smaller figure? Answer by stating the label of the chosen item.
II
(II: 4 nM, I: 14 nM)

###

- Target of assay: human metabotropic Glutamate 4 receptor (mGluR4) (Homo sapiens (Human))
- Run description: Assay A: in vitro testing of mGluR4 potency (glutamate-induced cAMP lowering, HTRF cAMP)
- Condition description: HEK293 cells overexpressing human mGluR4; 10 uM L-glutamic acid, 1 uM forskolin; compounds of the present invention
pIC50: −log10 of the molar value.
Parameter: pIC50

Worked examples, 2 compounds total:
CCn1c(C(NC(=O)c2cnc(C)cn2)C2CCOC2)nc2ccc(Cl)cc21 (single isomer, unassigned) [Example 164]
7.46
CO[C@H](C)[C@H](NC(=O)c1cnc(C(F)F)cn1)c1nc2cc(OC(F)F)ccc2n1C [Example 80]
7.54

P: Cn1c([C@@H](NC(=O)c2cnc(C(F)F)cn2)C2CC2)nc2cc(F)ccc21 [Example 30]
Q: COCCn1c(C(NC(=O)c2cnc(C)cn2)C2CCCO2)nc2cc(OC(F)(F)F)ccc21 (stereo not shown) [Example 89-2]
Among P and Q , whose measured pIC50 is the smaller figure? Answer by stating the label of the chosen item.
P
(P: 7.74, Q: 8.40)

###

- Target of assay: human metabotropic Glutamate 4 receptor (mGluR4) (Homo sapiens (Human), UniProt Q14833)
- Sequence (Q14833 33-912): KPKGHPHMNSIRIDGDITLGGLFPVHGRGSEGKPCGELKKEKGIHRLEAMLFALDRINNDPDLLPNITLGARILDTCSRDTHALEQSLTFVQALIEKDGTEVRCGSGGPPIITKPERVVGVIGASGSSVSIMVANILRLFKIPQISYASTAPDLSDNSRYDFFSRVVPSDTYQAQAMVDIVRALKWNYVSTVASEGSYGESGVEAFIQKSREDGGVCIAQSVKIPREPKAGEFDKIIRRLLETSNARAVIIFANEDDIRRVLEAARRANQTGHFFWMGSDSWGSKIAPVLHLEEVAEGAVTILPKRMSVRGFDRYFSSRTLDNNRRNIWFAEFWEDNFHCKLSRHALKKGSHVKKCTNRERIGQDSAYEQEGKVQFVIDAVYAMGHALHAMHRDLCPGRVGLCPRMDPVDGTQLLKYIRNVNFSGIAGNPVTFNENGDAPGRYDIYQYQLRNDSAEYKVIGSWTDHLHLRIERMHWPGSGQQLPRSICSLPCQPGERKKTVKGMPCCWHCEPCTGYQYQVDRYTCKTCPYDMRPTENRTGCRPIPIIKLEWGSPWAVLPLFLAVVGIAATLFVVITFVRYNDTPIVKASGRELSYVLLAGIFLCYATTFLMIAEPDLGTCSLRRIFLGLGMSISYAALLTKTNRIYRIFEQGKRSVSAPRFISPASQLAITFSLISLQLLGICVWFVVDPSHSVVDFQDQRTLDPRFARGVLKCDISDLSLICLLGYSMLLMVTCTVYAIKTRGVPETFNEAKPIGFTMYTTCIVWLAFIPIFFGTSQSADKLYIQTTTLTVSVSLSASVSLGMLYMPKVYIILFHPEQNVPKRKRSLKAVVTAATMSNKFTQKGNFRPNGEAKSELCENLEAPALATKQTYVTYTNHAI
- Run description: Assay A: in vitro testing of mGluR4 potency (glutamate-induced cAMP lowering, HTRF cAMP)
- Condition description: HEK293 cells overexpressing human mGluR4; 10 uM L-glutamic acid, 1 uM forskolin; compounds of the present invention
Parameter: IC50 (nM)

Worked examples, 2 compounds total:
O=C(N[C@@H](CC1CC1)c1nc2cc(F)c(F)cc2n1CCOC(F)F)c1cnc(C(F)F)cn1 [Example 111]
10
Cc1cnc(C(=O)N[C@H](c2nc3c(F)c(C)ccc3n2CC(F)F)C2CC2)cn1 [Example 9]
4

1: CCn1c([C@@H](NC(=O)c2cnc(C)cn2)[C@@H]2CCOC2)nc2cc(C(F)(F)F)ccc21 [Example 140]
2: COCCn1c([C@@H](NC(=O)c2cnc(C)cn2)C2CC2)nc2cc(Cl)ccc21 [Example 8]
3: Cc1cnc(C(=O)NC(c2nc3cc(C(F)(F)F)ccc3n2C)C2CCCOC2)cn1 (single isomer, unassigned) [Example 82-2]
4: COCCn1c(C(NC(=O)c2cnc(C)cn2)C2CCCOC2)nc2cc(C(F)(F)F)ccc21 (single isomer, unassigned) [Example 103-1]
5: Cc1cnc(C(=O)N[C@H](c2nc3cc(C(F)(F)F)ccc3n2C)[C@@H](C)OC(F)F)cn1 [Example 61]
Reorder: IC50, max to min. Reply with the labels, ordered as the question asks.
3, 4, 1, 5, 2
(3: 32 nM, 4: 22 nM, 1: 12 nM, 5: 8 nM, 2: 3 nM)
